System: TAB165
assayComment: qHTS profiling for inhibitors of Plasmodium falciparum proliferation (AID 504749); also: nearly all actives have a fitted effect of over 60% in size
conditionLabel: P. falciparum in erythrocytes, SYBR Green DNA, 72 h; series mostly up to 28.7 µM
Results filed as inconclusive are left out. Activity calls are given as the source filed them. Calls follow the shape of the dose curve; as a rule, active = well fitted inhibition curve with a large enough effect; inconclusive = small, poorly fitted or top-dose-only effect; inactive = flat fitted curve, though single readings scatter.
Labels: 1 = active, 0 = inactive

{"compound": "c1cc2c(c(N3CCNCC3)c1)OCCO2", "assignedLabel": 0}
{"compound": "COP(=S)(OC)Oc1ccc(Sc2ccc(OP(=S)(OC)OC)cc2)cc1", "assignedLabel": 0}
{"compound": "CCC1(c2ccccc2)CCC(=O)NC1=O (stereo unspecified)", "assignedLabel": 0}
{"compound": "Cc1c(Cl)c(=O)oc2cc(OP(=O)(OCCCl)OCCCl)ccc12", "assignedLabel": 1}
{"compound": "COc1ccc(CN2CCNCC2)c(OC)c1OC", "assignedLabel": 0}
{"compound": "C=CCOC(Cn1ccnc1)c1ccc(Cl)cc1Cl (stereo unspecified)", "assignedLabel": 1}
{"compound": "c1ccc2nc(N3CCNCC3)ccc2c1", "assignedLabel": 0}
{"compound": "NC(=O)CN1CCCC1=O", "assignedLabel": 0}
{"compound": "C[N+]1(CCC(C(N)=O)(c2ccccc2)c2ccccc2)CCCCC1", "assignedLabel": 0}
{"compound": "NC(=O)OCCCc1ccccc1", "assignedLabel": 0}
{"compound": "CC(C)NCC(O)c1ccc(N)c(C#N)c1 (stereo unspecified)", "assignedLabel": 0}
{"compound": "CCC(=O)O[C@H]1CC[C@H]2[C@@H]3CCC4=CC(=O)CC[C@]4(C)[C@H]3CC[C@]12C", "assignedLabel": 0}
{"compound": "COP(=O)(OC)C(O)C(Cl)(Cl)Cl (stereo unspecified)", "assignedLabel": 0}
{"compound": "NCc1cccnc1", "assignedLabel": 0}
{"compound": "CNC(=O)NC(O)C(Cl)(Cl)Cl (stereo unspecified)", "assignedLabel": 0}
{"compound": "CC(C)[N+](C)(CCC(C(N)=O)(c1ccccc1)c1ccccc1)C(C)C", "assignedLabel": 0}
{"compound": "O=C(O)c1nn(Cc2ccc(Cl)cc2Cl)c2ccccc12", "assignedLabel": 0}
{"compound": "N#Cc1nn(-c2c(Cl)cc(C(F)(F)F)cc2Cl)c(N)c1S(=O)C(F)(F)F (stereo unspecified)", "assignedLabel": 1}
{"compound": "C[C@]12CC[C@H]3[C@@H](CC=C4C[C@@H](O)CC[C@@]43C)[C@@H]1CC[C@@H]2O", "assignedLabel": 0}
{"compound": "Cc1ccc(N=CN(C)C=Nc2ccc(C)cc2C)c(C)c1", "assignedLabel": 0}
{"compound": "COP(=O)(OC)OC=C(Cl)Cl", "assignedLabel": 0}

----------
System: NIH3T3
assayComment: Cytotoxic Profiling of Annotated Libraries Using Quantitative High-Throughput Screening (AID 1296008); also: % is scaled to controls: 0 for no effect and ±100 for the full control effect; nearly all actives have a fitted effect of over 60% in size
conditionLabel: Five cell lines viability, CellTiter-Glo ATP luminescence, 48-72 h; active compounds read low
Inconclusive results are not listed.
endpointLabel: max response (%)

{"compound": "CNC(C)Cc1ccc2c(c1)OCO2 (configuration not stated)", "assayedTarget": "NIH3T3", "endpointLabel": "max response", "unitSpec": "%", "measurement": 0.465}
{"compound": "CNC(=O)NC(O)C(Cl)(Cl)Cl (configuration not stated)", "assayedTarget": "NIH3T3", "endpointLabel": "max response", "unitSpec": "%", "measurement": -0.697}
{"compound": "ClCc1cccc(Cl)c1", "assayedTarget": "NIH3T3", "endpointLabel": "max response", "unitSpec": "%", "measurement": 0.768}
{"compound": "C[N+]1(C)[C@@H]2CC[C@H]1CC(OC(=O)C(CO)c1ccccc1)C2 (some centres not stated)", "assayedTarget": "NIH3T3", "endpointLabel": "max response", "unitSpec": "%", "measurement": -5.19}
{"compound": "COc1cc(CC#N)cc(OC)c1OC", "assayedTarget": "NIH3T3", "endpointLabel": "max response", "unitSpec": "%", "measurement": -3.69}
{"compound": "CN(C)CCc1c[nH]c2ccccc12", "assayedTarget": "NIH3T3", "endpointLabel": "max response", "unitSpec": "%", "measurement": 2.6}
{"compound": "CCOC(=O)NC(O)C(Cl)(Cl)Cl (configuration not stated)", "assayedTarget": "NIH3T3", "endpointLabel": "max response", "unitSpec": "%", "measurement": 0.136}
{"compound": "CC[C@H]1C[C@@H]2C[C@H]3c4[nH]c5ccc(OC)cc5c4CCN(C2)[C@@H]13", "assayedTarget": "NIH3T3", "endpointLabel": "max response", "unitSpec": "%", "measurement": -11.9}
{"compound": "Oc1c(Br)cc(Br)cc1Br", "assayedTarget": "NIH3T3", "endpointLabel": "max response", "unitSpec": "%", "measurement": -1.39}
{"compound": "CCC(=O)OC1(c2ccccc2)CCN(C)CC1", "assayedTarget": "NIH3T3", "endpointLabel": "max response", "unitSpec": "%", "measurement": -0.056}
{"compound": "COP(=S)(OC)Oc1ccc(S(N)(=O)=O)cc1", "assayedTarget": "NIH3T3", "endpointLabel": "max response", "unitSpec": "%", "measurement": -5.5}
{"compound": "c1ccc2nc(N3CCNCC3)ccc2c1", "assayedTarget": "NIH3T3", "endpointLabel": "max response", "unitSpec": "%", "measurement": 0.319}
{"compound": "C=CCN1CC[C@]23CCCC[C@H]2[C@H]1Cc1ccc(O)cc13", "assayedTarget": "NIH3T3", "endpointLabel": "max response", "unitSpec": "%", "measurement": -4.67}
{"compound": "Cc1c(Cl)c(=O)oc2cc(OP(=O)(OCCCl)OCCCl)ccc12", "assayedTarget": "NIH3T3", "endpointLabel": "max response", "unitSpec": "%", "measurement": -22.4}
{"compound": "CC[C@H]1C[C@H]2[C@@H]3CCC4=CC(=O)CC[C@@H]4[C@H]3CC[C@]2(C)[C@H]1O", "assayedTarget": "NIH3T3", "endpointLabel": "max response", "unitSpec": "%", "measurement": -0.575}
{"compound": "CCNc1nc(Cl)nc(NCC)n1", "assayedTarget": "NIH3T3", "endpointLabel": "max response", "unitSpec": "%", "measurement": -12.6}
{"compound": "ClC1=C(Cl)C2(Cl)C(CBr)CC1(Cl)C2(Cl)Cl (configuration not stated)", "assayedTarget": "NIH3T3", "endpointLabel": "max response", "unitSpec": "%", "measurement": -4.41}
{"compound": "C[C@]12CC[C@H]3[C@@H](CC=C4C[C@@H](O)CC[C@@]43C)[C@@H]1CC[C@@H]2O", "assayedTarget": "NIH3T3", "endpointLabel": "max response", "unitSpec": "%", "measurement": 4.53}
{"compound": "CC(C)NCC(O)c1ccc(N)c(C#N)c1 (configuration not stated)", "assayedTarget": "NIH3T3", "endpointLabel": "max response", "unitSpec": "%", "measurement": 2.77}
{"compound": "CCC(=O)O[C@H]1CC[C@H]2[C@@H]3CCC4=CC(=O)CC[C@]4(C)[C@H]3CC[C@]12C", "assayedTarget": "NIH3T3", "endpointLabel": "max response", "unitSpec": "%", "measurement": 0.89}
{"compound": "NCc1cccnc1", "assayedTarget": "NIH3T3", "endpointLabel": "max response", "unitSpec": "%", "measurement": 3.43}
{"compound": "O=C(NC(=O)c1c(F)cccc1F)Nc1cc(Cl)c(OC(F)(F)C(F)C(F)(F)F)cc1Cl (configuration not stated)", "assayedTarget": "NIH3T3", "endpointLabel": "max response", "unitSpec": "%", "measurement": -16.1}
{"compound": "O=C(CCl)c1ccc(Cl)cc1Cl", "assayedTarget": "NIH3T3", "endpointLabel": "max response", "unitSpec": "%", "measurement": -36.1}
{"compound": "COc1cc(C[C@@H](C)N)c(OC)cc1C", "assayedTarget": "NIH3T3", "endpointLabel": "max response", "unitSpec": "%", "measurement": -23.9}
{"compound": "CCOC(=O)NC(C)(C)Cc1ccc(Cl)cc1", "assayedTarget": "NIH3T3", "endpointLabel": "max response", "unitSpec": "%", "measurement": -3.93}
{"compound": "CC1=C2[C@H]3OC(=O)[C@@H](C)[C@@H]3CC[C@@]2(C)C=CC1=O", "assayedTarget": "NIH3T3", "endpointLabel": "max response", "unitSpec": "%", "measurement": -1.04}
{"compound": "C[N+](C)(C)CCOC(=O)C(O)(c1ccccc1)c1ccccc1", "assayedTarget": "NIH3T3", "endpointLabel": "max response", "unitSpec": "%", "measurement": 2.06}

----------
System: CP250
assayComment: qHTS profiling for inhibitors of Plasmodium falciparum proliferation (AID 504749); also: nearly all actives have a fitted effect of over 60% in size; also: potency is read from the fitted curve at half-maximal effect
conditionLabel: P. falciparum in erythrocytes, SYBR Green DNA, 72 h; series mostly up to 28.7 µM
Records with an inconclusive call do not appear. Calls of active or inactive are those of the source. Calls follow the shape of the dose curve; as a rule, active = well fitted inhibition curve with a large enough effect; inconclusive = small, poorly fitted or top-dose-only effect; inactive = flat fitted curve, though single readings scatter.

{"compound": "OC(c1ccccc1)(c1ccccc1)C1CCNCC1", "Potency": "inactive"}
{"compound": "C[N+]1(CCC(C(N)=O)(c2ccccc2)c2ccccc2)CCCCC1", "Potency": "inactive"}
{"compound": "COc1ccc(CN2CCNCC2)c(OC)c1OC", "Potency": "inactive"}
{"compound": "CCCCCCCCCCCC[N+](C)(C)CCOc1ccccc1", "Potency": "7.94 µM (active)"}
{"compound": "COC(=O)C1=CCCN(C)C1", "Potency": "inactive"}
{"compound": "CC(C)C(Br)C(=O)NC(N)=O (centres undefined)", "Potency": "inactive"}
{"compound": "COP(=O)(OC)C(O)C(Cl)(Cl)Cl (centres undefined)", "Potency": "inactive"}
{"compound": "c1ccc2nc(N3CCNCC3)ccc2c1", "Potency": "inactive"}
{"compound": "CN1C[C@@H](NS(=O)(=O)N(C)C)C[C@@H]2c3cccc4c3c(cn4C)C[C@H]21", "Potency": "inactive"}
{"compound": "CNC(=O)Oc1cccc2ccccc12", "Potency": "inactive"}
{"compound": "Oc1c(Br)cc(Br)cc1Br", "Potency": "inactive"}
{"compound": "CCC1(c2ccccc2)CCC(=O)NC1=O (centres undefined)", "Potency": "inactive"}
{"compound": "CC(Cc1ccccc1)NCc1ccccc1Cl (centres undefined)", "Potency": "inactive"}
{"compound": "CN(C)C(=S)SSC(=S)N(C)C", "Potency": "3.16 µM (active)"}
{"compound": "Cc1c(Cl)c(=O)oc2cc(OP(=O)(OCCCl)OCCCl)ccc12", "Potency": "8.91 µM (active)"}
{"compound": "O=C(CCCN1CCC(n2c(=O)[nH]c3ccccc32)CC1)c1ccc(F)cc1", "Potency": "2.82 µM (active)"}
{"compound": "CCCCCCCCC(=O)NCc1ccc(O)c(OC)c1", "Potency": "inactive"}
{"compound": "CCS(=O)(=O)C(C)(C)S(=O)(=O)CC", "Potency": "inactive"}
{"compound": "NCc1cccnc1", "Potency": "inactive"}
{"compound": "C=CCOC(Cn1ccnc1)c1ccc(Cl)cc1Cl (centres undefined)", "Potency": "10 µM (active)"}
{"compound": "OC(O)C(Cl)(Cl)Cl", "Potency": "inactive"}
{"compound": "CCN(CC)C(C)C(=O)c1ccccc1 (centres undefined)", "Potency": "inactive"}
{"compound": "CC(C)[N+](C)(CCC(C(N)=O)(c1ccccc1)c1ccccc1)C(C)C", "Potency": "inactive"}
{"compound": "CC(C)(C)OC(=O)c1ncn2c1[C@@H]1CCCN1C(=O)c1c(Br)cccc1-2", "Potency": "inactive"}
{"compound": "Nc1ccc(N)cc1", "Potency": "12.6 µM (active)"}
{"compound": "O=C(O)c1nn(Cc2ccc(Cl)cc2Cl)c2ccccc12", "Potency": "inactive"}
{"compound": "CN1C(=O)CN=C(c2ccccc2)c2cc([N+](=O)[O-])ccc21", "Potency": "inactive"}
{"compound": "CCOC(=O)NC(O)C(Cl)(Cl)Cl (centres undefined)", "Potency": "inactive"}
{"compound": "C[N+](C)(C)CCOC(=O)C(O)(c1ccccc1)c1ccccc1", "Potency": "inactive"}
